biological target: FGFR1 (UniProt P11362); experiment: phosphorylation enrichment, bacterial display (enrichment ratio); higher = better substrate or ligand; peptides without Tyr show the background;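 also: 11-residue human phosphosite peptides and single-mutation variants displayed on the E. coli surface, counted by deep sequencing, each peptide's frequency after selection divided by its frequency in the unselected input library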;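 also: frequency after pTyr selection over input frequency; kinase dosed for 20-30% of maximal phosphorylation in three min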
Sequence (P11362 whole entry, looked up): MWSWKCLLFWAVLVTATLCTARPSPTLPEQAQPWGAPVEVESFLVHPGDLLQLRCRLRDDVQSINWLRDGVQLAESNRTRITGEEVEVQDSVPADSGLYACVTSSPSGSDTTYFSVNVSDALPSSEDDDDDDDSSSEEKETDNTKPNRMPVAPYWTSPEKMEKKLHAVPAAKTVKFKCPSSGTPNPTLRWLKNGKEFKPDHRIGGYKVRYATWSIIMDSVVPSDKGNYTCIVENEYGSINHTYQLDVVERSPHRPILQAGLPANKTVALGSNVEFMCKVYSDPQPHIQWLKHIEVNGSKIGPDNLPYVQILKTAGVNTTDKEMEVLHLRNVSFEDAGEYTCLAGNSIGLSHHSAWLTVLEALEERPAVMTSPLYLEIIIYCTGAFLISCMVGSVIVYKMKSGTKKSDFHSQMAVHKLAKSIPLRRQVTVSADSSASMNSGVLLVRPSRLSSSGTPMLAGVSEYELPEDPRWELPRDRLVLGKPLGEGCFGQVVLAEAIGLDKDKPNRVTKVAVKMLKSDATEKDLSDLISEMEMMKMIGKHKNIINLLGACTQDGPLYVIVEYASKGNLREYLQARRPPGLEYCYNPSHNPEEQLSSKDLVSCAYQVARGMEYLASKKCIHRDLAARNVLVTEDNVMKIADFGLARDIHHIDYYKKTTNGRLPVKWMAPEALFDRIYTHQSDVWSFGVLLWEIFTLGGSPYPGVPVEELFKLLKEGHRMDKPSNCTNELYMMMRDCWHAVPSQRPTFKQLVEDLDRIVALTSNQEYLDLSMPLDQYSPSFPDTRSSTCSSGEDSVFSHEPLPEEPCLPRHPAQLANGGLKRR
Label yes when phosphorylation enrichment is at or above 0.6; anything below gets no.

[
  {
    "SEQUENCE STRING": "FPCSVYMPDEW [INSR_Y1011_V1012M]",
    "SYSTEM NAME": "FGFR1 (UniProt P11362)",
    "LABEL VALUE": "yes"
  },
  {
    "SEQUENCE STRING": "DEEPPHRGPFC [SASH1_Y551_Y551H]",
    "SYSTEM NAME": "FGFR1 (UniProt P11362)",
    "LABEL VALUE": "yes"
  },
  {
    "SEQUENCE STRING": "KEKLCYVAPDF [ACTA1_Y220_L223P]",
    "SYSTEM NAME": "FGFR1 (UniProt P11362)",
    "LABEL VALUE": "yes"
  },
  {
    "SEQUENCE STRING": "ADKAAYLQSLN [MYH2_Y389]",
    "SYSTEM NAME": "FGFR1 (UniProt P11362)",
    "LABEL VALUE": "no"
  },
  {
    "SEQUENCE STRING": "HIKHNYECLVY [XRCC5_Y416]",
    "SYSTEM NAME": "FGFR1 (UniProt P11362)",
    "LABEL VALUE": "yes"
  },
  {
    "SEQUENCE STRING": "TFFQMYDKGLV [IARS2_Y231_YF]",
    "SYSTEM NAME": "FGFR1 (UniProt P11362)",
    "LABEL VALUE": "no"
  },
  {
    "SEQUENCE STRING": "IFQASYFRRGD [LTK_Y676_R673Q_YF]",
    "SYSTEM NAME": "FGFR1 (UniProt P11362)",
    "LABEL VALUE": "no"
  },
  {
    "SEQUENCE STRING": "KVMANYMFKAG [MAML2_Y513_YF]",
    "SYSTEM NAME": "FGFR1 (UniProt P11362)",
    "LABEL VALUE": "no"
  },
  {
    "SEQUENCE STRING": "YIATQYSLRPR [LBR_Y166]",
    "SYSTEM NAME": "FGFR1 (UniProt P11362)",
    "LABEL VALUE": "no"
  },
  {
    "SEQUENCE STRING": "QADVTYVNTQL [MERTK_Y872_I871T]",
    "SYSTEM NAME": "FGFR1 (UniProt P11362)",
    "LABEL VALUE": "no"
  },
  {
    "SEQUENCE STRING": "LADKPYTFEYY [FXN_Y118_D122Y]",
    "SYSTEM NAME": "FGFR1 (UniProt P11362)",
    "LABEL VALUE": "yes"
  },
  {
    "SEQUENCE STRING": "FTGNTYRVGDT [FN1_Y106_YF]",
    "SYSTEM NAME": "FGFR1 (UniProt P11362)",
    "LABEL VALUE": "no"
  },
  {
    "SEQUENCE STRING": "GGYTWYCDGKK [PROS1_Y266_C265W]",
    "SYSTEM NAME": "FGFR1 (UniProt P11362)",
    "LABEL VALUE": "no"
  },
  {
    "SEQUENCE STRING": "KHMADYPDCKY [SOX11_Y113_Y116C]",
    "SYSTEM NAME": "FGFR1 (UniProt P11362)",
    "LABEL VALUE": "yes"
  },
  {
    "SEQUENCE STRING": "KEGSAYGSQSV [NFKB2_Y868_D865G]",
    "SYSTEM NAME": "FGFR1 (UniProt P11362)",
    "LABEL VALUE": "no"
  },
  {
    "SEQUENCE STRING": "PELINYQQHNS [BTK_Y361_H362Q]",
    "SYSTEM NAME": "FGFR1 (UniProt P11362)",
    "LABEL VALUE": "yes"
  },
  {
    "SEQUENCE STRING": "MSYDRYMAICH [OR2A5_Y123]",
    "SYSTEM NAME": "FGFR1 (UniProt P11362)",
    "LABEL VALUE": "no"
  },
  {
    "SEQUENCE STRING": "FDCKWYIPLTD [BCR_Y756_YF]",
    "SYSTEM NAME": "FGFR1 (UniProt P11362)",
    "LABEL VALUE": "yes"
  },
  {
    "SEQUENCE STRING": "SMAKFYASEIA [ACADSB_Y373_YF]",
    "SYSTEM NAME": "FGFR1 (UniProt P11362)",
    "LABEL VALUE": "no"
  },
  {
    "SEQUENCE STRING": "NESVDYRATFP [MET_Y1003]",
    "SYSTEM NAME": "FGFR1 (UniProt P11362)",
    "LABEL VALUE": "no"
  },
  {
    "SEQUENCE STRING": "HKLSFCEFDFE [BTK_Y40_Y40C_YF]",
    "SYSTEM NAME": "FGFR1 (UniProt P11362)",
    "LABEL VALUE": "yes"
  },
  {
    "SEQUENCE STRING": "DENWFYMRAAS [RPS19_Y54_T55M]",
    "SYSTEM NAME": "FGFR1 (UniProt P11362)",
    "LABEL VALUE": "yes"
  },
  {
    "SEQUENCE STRING": "YYSSEYHYVGG [CTSC_Y345]",
    "SYSTEM NAME": "FGFR1 (UniProt P11362)",
    "LABEL VALUE": "yes"
  },
  {
    "SEQUENCE STRING": "SVVVPYEPPKV [TP53_Y220_E224K]",
    "SYSTEM NAME": "FGFR1 (UniProt P11362)",
    "LABEL VALUE": "no"
  },
  {
    "SEQUENCE STRING": "IEPCIYIPEDD [XPNPEP3_Y455_G453C]",
    "SYSTEM NAME": "FGFR1 (UniProt P11362)",
    "LABEL VALUE": "yes"
  },
  {
    "SEQUENCE STRING": "LTELGYSFVTT [ACTA1_Y200_R198L]",
    "SYSTEM NAME": "FGFR1 (UniProt P11362)",
    "LABEL VALUE": "yes"
  },
  {
    "SEQUENCE STRING": "KAIMIYVSSFY [ACTN4_Y260_T259I]",
    "SYSTEM NAME": "FGFR1 (UniProt P11362)",
    "LABEL VALUE": "no"
  },
  {
    "SEQUENCE STRING": "LSFSEYASVQV [SIRPA_Y496_P491L]",
    "SYSTEM NAME": "FGFR1 (UniProt P11362)",
    "LABEL VALUE": "yes"
  },
  {
    "SEQUENCE STRING": "RGRSTYFWPRP [GAGE12J_Y9_YF]",
    "SYSTEM NAME": "FGFR1 (UniProt P11362)",
    "LABEL VALUE": "yes"
  },
  {
    "SEQUENCE STRING": "NKHTNYTMEHI [ACTN1_Y708]",
    "SYSTEM NAME": "FGFR1 (UniProt P11362)",
    "LABEL VALUE": "no"
  },
  {
    "SEQUENCE STRING": "ISGLKYPVSQQ [BTK_Y375_R372G]",
    "SYSTEM NAME": "FGFR1 (UniProt P11362)",
    "LABEL VALUE": "no"
  },
  {
    "SEQUENCE STRING": "VDESLYKTHPQ [HK1_Y417_G414E]",
    "SYSTEM NAME": "FGFR1 (UniProt P11362)",
    "LABEL VALUE": "yes"
  },
  {
    "SEQUENCE STRING": "HAVFVCDICHV [TWNK_Y508_Y508C_YF]",
    "SYSTEM NAME": "FGFR1 (UniProt P11362)",
    "LABEL VALUE": "no"
  },
  {
    "SEQUENCE STRING": "IAINKYGVSLI [MYO7A_Y2136]",
    "SYSTEM NAME": "FGFR1 (UniProt P11362)",
    "LABEL VALUE": "yes"
  },
  {
    "SEQUENCE STRING": "HNLDYYKQTTN [FGFR3_Y648_K650Q]",
    "SYSTEM NAME": "FGFR1 (UniProt P11362)",
    "LABEL VALUE": "yes"
  },
  {
    "SEQUENCE STRING": "RKLASYQSCLL [DHX37_Y1080_R1081Q]",
    "SYSTEM NAME": "FGFR1 (UniProt P11362)",
    "LABEL VALUE": "yes"
  },
  {
    "SEQUENCE STRING": "RSSKMYFKTRS [LPL_Y329_L330F]",
    "SYSTEM NAME": "FGFR1 (UniProt P11362)",
    "LABEL VALUE": "yes"
  },
  {
    "SEQUENCE STRING": "ATQDDYVLEVR [PTPRZ1_Y2179]",
    "SYSTEM NAME": "FGFR1 (UniProt P11362)",
    "LABEL VALUE": "no"
  }
]
